# procedure-details: NCI Yeast Anticancer Drug Screen. Data for the mec2-1 strain (AID 157)
# assay-setup: S. cerevisiae mec2-1 strain, at 50.0 µM (retest, dose inferred, filed as 5.0), active compounds read high
About 79,000 compounds went through this panel and 15% of them were active in at least one assay; those are over-represented in the sample as a whole.
readout-name: growth inhibition (%)

{"compound": "O=C(Nc1c(Cl)cccc1Cl)OCc1ccc2c(c1)OCO2", "numeric-readout": 32}
{"compound": "c1cc(SSc2ccncc2)ccn1", "numeric-readout": 100}
{"compound": "Nc1ccc2nc(Nc3ccc(Cl)c(Cl)c3)cnc2c1", "numeric-readout": 97}
{"compound": "COC(=O)c1c(/C(=N/Nc2ccc([N+](=O)[O-])cc2)[N+](=O)[O-])ssc1=N", "numeric-readout": 44}
{"compound": "Cc1ccc(SC2C(=O)C3(C)CCC2C3(C)C)cc1 (stereo unspecified)", "numeric-readout": 27}
{"compound": "O=C1C=CC(=O)N1c1ccc(Cl)cc1Br", "numeric-readout": 44}
{"compound": "COC(=O)CSc1n[nH]c(-c2ccc(O)c([N+](=O)[O-])c2)n1", "numeric-readout": 56}
{"compound": "N/C(=N\\OC(=O)Nc1ccccc1)c1ccccc1", "numeric-readout": 40}
{"compound": "Cc1ccc2sc(=S)sc2c1", "numeric-readout": 53}
{"compound": "CC(=O)c1c(O)c2ccc(Cl)cc2[nH]c1=O", "numeric-readout": 87}
{"compound": "Cc1ccc(S(=O)(=O)C2C=CC=CC=C2)cc1", "numeric-readout": 54}
{"compound": "O=[N+]([O-])c1ccc(S)c(Cl)c1", "numeric-readout": 95}
{"compound": "O=C(CBr)N1c2ccccc2Sc2ccc3ccccc3c21", "numeric-readout": 99}
{"compound": "Clc1ccc(SCCN2CCN(CCSc3ccc(Cl)cc3)CC2)cc1", "numeric-readout": 99}
{"compound": "CCN(CC)C(=S)N/N=C(/c1ccccc1)c1ccccn1", "numeric-readout": 97}
{"compound": "CC#CC(=O)Nc1ccccc1CC(c1c[nH]c2ccccc12)c1c[nH]c2ccccc12", "numeric-readout": 31}
{"compound": "CC(C)(Br)C(=O)/C=C/c1ccc(Cl)cc1", "numeric-readout": 100}
{"compound": "CN=c1ss/c(=N\\C(=S)N(C)C)n1-c1ccccc1", "numeric-readout": 7}
{"compound": "ON(C(=Nc1ccc(Cl)cc1)c1ccccc1)c1ccccc1", "numeric-readout": 99}
{"compound": "CCCCCCCCCCCCCCCCNCCCCCCCC(=O)O", "numeric-readout": 49}
{"compound": "O=C(C[n+]1ccccc1Cl)c1ccc(F)cc1", "numeric-readout": 100}
{"compound": "C=CCOC(=O)C#CCCCC", "numeric-readout": 2}
{"compound": "CCOCCOC(=O)C(C)O (stereo unspecified)", "numeric-readout": -3}
{"compound": "CCOC(=O)CCC(=O)Oc1ccc2c(c1OC(=O)CCC(=O)OCC)C(=O)c1ccccc1C2=O", "numeric-readout": 97}
{"compound": "O=C(Nc1c(Cl)cccc1Cl)Oc1c(Br)cc(Br)cc1Br", "numeric-readout": 94}
{"compound": "Cc1ccc(S(=O)(=O)OCCc2ccc(Cl)cc2)cc1", "numeric-readout": -13}
